species: Cavia porcellus; assay: Percent inhibition of the LTE4- induced contraction of guinea pig tracheal spirals at the concentration of 3.3 uM; assay type: functional; conditions: Trachea
Measured attribute: inhibition at 3.3 µM (%)
Enter your answer as a number in %; do not include the unit.

Please review the entries below; each comes with its answer.
Prompt: Entry COc1cc(C(=O)O)ccc1Cn1ccc2ccc(NC(=O)C(C)(C)c3ccccc3)cc21 has what inhibition at 3.3 µM?
Completion: 23

Prompt: Record: COc1cc(C(=O)O)ccc1Cn1ccc2ccc(NC(=O)NC(C)(C)C)cc21
Completion: 24

Prompt: Record: COc1cc(C(=O)O)ccc1Cn1ccc2ccc(NC(=O)OC(C)(C)C)cc21
Completion: 10

From here, focus on the item given below.
Prompt: Entry COc1cc(C(=O)O)ccc1Cn1ccc2ccc(NC(=O)C(OC)c3ccccc3)cc21 (centres undefined) has what inhibition at 3.3 µM?
Completion: 52

----------
species: Cavia porcellus; assay: Percent inhibition of the LTE4- induced contraction of guinea pig tracheal spirals at the concentration of 0.1 uM; type: functional; conditions: Trachea
Measured attribute: inhibition at 0.1 µM (%)
Enter your answer as a number in %; do not include the unit.

Please review the entries below; each comes with its answer.
Prompt: Entry COc1cc(C(=O)O)ccc1Cn1ncc2ccc(NC(=O)CC3CCCC3)cc21 has what inhibition at 0.1 µM?
Completion: 83

Prompt: Record: COc1cc(C(=O)O)ccc1Cn1ccc2ccc(NC(=O)OC3CCCC3)cc21
Completion: 61

Prompt: Record: COc1cc(C(=O)O)ccc1Cn1ncc2ccc(NC(=O)OC3CCCC3)cc21
Completion: 65

Prompt: Record: COc1cc(C(=O)O)ccc1Cn1ccc2ccc(NC(=O)OC3CCC3)cc21
Completion: 27

From here, focus on the item given below.
Prompt: Entry COc1cc(C(=O)O)ccc1Cn1ccc2ccc(NC(=O)CC3CCCC3)cc21 has what inhibition at 0.1 µM?
Completion: 34

----------
system: Cysteinyl leukotriene receptor (Cavia porcellus); assay: Inhibition of the LTE4- induced contraction of guinea pig tracheal spirals at 10 uM.; details: Trachea
Measured attribute: inhibition (%)
Enter your answer as a number in %; do not include the unit.

Prompt: Entry COc1cc(C(=O)O)ccc1Cn1ccc2ccc(NC(=O)Cc3ccc(C)cc3)cc21 has what inhibition?
Completion: 29

Prompt: Record: CCCC/N=C(\S)Nc1ccc2ccn(Cc3ccc(C(=O)O)cc3OC)c2c1
Completion: 18

Prompt: Record: COc1cc(C(=O)O)ccc1Cn1ccc2ccc(NC(=O)Nc3ccccc3C(F)(F)F)cc21
Completion: 42

Prompt: Record: COc1cc(C(=O)O)ccc1Cn1ccc2ccc(NC(=O)C(F)(F)C(F)(F)C(F)(F)F)cc21
Completion: 40

----------
organism: Cavia porcellus; test: Percent inhibition of the LTE4- induced contraction of guinea pig tracheal spirals at the concentration of 3.3 uM; format: functional; settings: Trachea
Assign class by inhibition at 3.3 µM: not lower than 50% means T; lower than 50% means F.

Recorded results for 3 molecules are shown here.
Prompt: API: above_or_equal(metric=inhibition at 3.3 µM, cutoff=50%) for item COc1cc(C(=O)O)ccc1Cn1ccc2ccc(NC(=O)C(C)c3ccccc3)cc21 (stereo not given)
Completion: T

Prompt: Record: COc1cc(C(=O)O)ccc1Cn1ccc2ccc(NC(=O)OC3CCOC3)cc21 (stereo not given)
Completion: T

Prompt: Record: COc1cc(C(=O)O)ccc1Cn1ccc2ccc(NC(=O)C(c3ccccc3)c3ccccc3)cc21
Completion: F

Okay, next one:
Prompt: API: above_or_equal(metric=inhibition at 3.3 µM, cutoff=50%) for item COc1cc(C(=O)O)ccc1Cn1ccc2ccc(NC(=O)NC3CCCCC3)cc21
Completion: F

----------
system: Cysteinyl leukotriene receptor (Cavia porcellus); experiment: Inhibition of the LTE4- induced contraction of guinea pig tracheal spirals at 10 uM.; details: Trachea
inhibition for assorted compounds
Quick note: unit goes after the number.

Please review the entries below; each comes with its answer.
Prompt: Entry COc1cc(C(=O)O)ccc1Cn1ccc2ccc(NC(=O)CCc3ccccc3)cc21 has what inhibition?
Completion: 62%

Prompt: Record: CCCCCC(=O)Nc1cccc2c1ccn2Cc1ccc(C(=O)O)cc1OC
Completion: 29%

Prompt: Record: C#CCCC(=O)Nc1ccc2ccn(Cc3ccc(C(=O)O)cc3OC)c2c1
Completion: 47%

Prompt: Record: COc1cc(C(=O)O)ccc1Cn1ccc2ccc(NC(=O)NCc3ccccc3)cc21
Completion: 57%

Prompt: Record: COc1cc(C(=O)O)ccc1Cn1ccc2ccc(NC(=O)Cc3ccc(Cl)cc3)cc21
Completion: 44%

New cases:
Prompt: Entry COc1cc(C(=O)O)ccc1Cn1ccc2ccc(NC(=O)Cc3cccs3)cc21 has what inhibition?
Completion: 77%
